Molecular target: Retinoic acid receptor RXR-gamma (Homo sapiens)
Sequence (P48443 whole entry): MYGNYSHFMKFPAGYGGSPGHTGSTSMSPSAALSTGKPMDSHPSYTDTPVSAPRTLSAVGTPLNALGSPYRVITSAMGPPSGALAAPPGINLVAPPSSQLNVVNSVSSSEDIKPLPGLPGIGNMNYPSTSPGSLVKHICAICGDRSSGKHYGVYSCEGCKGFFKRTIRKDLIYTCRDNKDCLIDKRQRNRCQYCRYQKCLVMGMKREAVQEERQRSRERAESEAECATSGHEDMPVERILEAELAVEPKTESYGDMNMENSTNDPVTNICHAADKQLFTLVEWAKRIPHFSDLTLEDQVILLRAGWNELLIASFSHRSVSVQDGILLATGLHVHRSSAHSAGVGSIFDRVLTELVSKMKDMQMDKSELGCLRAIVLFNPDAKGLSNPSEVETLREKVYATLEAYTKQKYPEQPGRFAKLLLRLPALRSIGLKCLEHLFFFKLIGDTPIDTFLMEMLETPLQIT
Assay: Transcriptional activity was evaluated in CV-1 cells transfected with expression vector for Retinoic acid receptor RXR-gamma
measuredAttribute: log10 of EC50 (log10 of the value in nM)
Field: value | Transform: log10 | Quantity: EC50 | Unit: nM

# example entries with known answers
Cc1cc2c(cc1/C(=N/OCC#N)c1ccc(C(=O)O)cc1)C(C)(C)CCC2(C)C: 1.04
CO/N=C(\c1ccc(C(=O)O)cc1)c1cc2c(cc1C)C(C)(C)CCC2(C)C: 0.60

Inquiry: // query log10 of EC50 value for entry `CCO/N=C(\c1ccc(C(=O)O)cc1)c1cc2c(cc1C)C(C)(C)CCC2(C)C`
Reply text: 0.95

Inquiry: Which measured log10 of EC50 value corresponds to `Cc1cc2c(cc1/C(=N\O)c1ccc(C(=O)O)cc1)C(C)(C)CCC2(C)C` ?
Reply text: 1.53

Inquiry: Given `CC1(C)CCC(C)(C)c2cc(/C(=N/O)c3ccc(C(=O)O)cc3)ccc21` , state its recorded log10 of EC50.
Reply text: 3.46

Inquiry: What does the record list as log10 of EC50 for `CO/N=C(/c1ccc(C(=O)O)cc1)c1ccc2c(c1)C(C)(C)CCC2(C)C` ?
Reply text: 2.31

Inquiry: Consider the molecule `Cc1cc2c(cc1/C(=N/OCC(=O)O)c1ccc(C(=O)O)cc1)C(C)(C)CCC2(C)C` and give its measured log10 of EC50.
Reply text: 3.14

Inquiry: Query (molecule): `CO/N=C(/c1ccc(C(=O)O)cc1)c1cc2c(cc1C)C(C)(C)CCC2(C)C` ; field requested: log10 of EC50
Reply text: 2.40

Inquiry: What value of log10 of EC50 has been recorded for this entry: `Cc1cc2c(cc1/C(=N/OCCN)c1ccc(C(=O)O)cc1)C(C)(C)CCC2(C)C`
Reply text: 2.49

----------
Target: Retinoic acid receptor RXR-beta (Homo sapiens, UniProt P28702)
Sequence (P28702 whole entry): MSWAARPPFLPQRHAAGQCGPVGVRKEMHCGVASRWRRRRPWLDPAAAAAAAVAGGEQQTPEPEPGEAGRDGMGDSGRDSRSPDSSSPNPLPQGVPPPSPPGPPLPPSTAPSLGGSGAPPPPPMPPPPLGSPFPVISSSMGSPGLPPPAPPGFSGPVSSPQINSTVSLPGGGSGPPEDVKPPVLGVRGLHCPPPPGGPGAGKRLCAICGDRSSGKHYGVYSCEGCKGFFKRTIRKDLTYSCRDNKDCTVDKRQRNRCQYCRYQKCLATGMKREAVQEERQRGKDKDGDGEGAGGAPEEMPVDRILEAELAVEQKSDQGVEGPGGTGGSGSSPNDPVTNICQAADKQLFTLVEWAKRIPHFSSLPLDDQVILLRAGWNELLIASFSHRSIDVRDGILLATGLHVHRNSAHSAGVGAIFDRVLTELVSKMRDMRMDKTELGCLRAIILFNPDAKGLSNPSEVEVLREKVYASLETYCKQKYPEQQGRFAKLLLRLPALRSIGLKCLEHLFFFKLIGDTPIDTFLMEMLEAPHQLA
Assay: Binding affinity towards recombinantly expressed Retinoic acid receptor RXR-beta in baculoviral system, by using 5 nM [3H]targretin in a competitive binding assay
Measured Ki, listed per entry for reference.
The reply should be a number in nM, with the unit left off.

Example entries and their recorded answers appear below.
C=CCO/N=C(\c1ccc(C(=O)O)cc1)c1cc2c(cc1C)C(C)(C)CCC2(C)C: 15
CC1(C)CCC(C)(C)c2cc(/C(=N/O)c3ccc(C(=O)O)cc3)c(Br)cc21: 6
CCCCO/N=C(\c1ccc(C(=O)O)cc1)c1cc2c(cc1C)C(C)(C)CCC2(C)C: 283

# context switch: different molecule, same Ki
Inquiry: Fill blank: measured Ki of the molecule `CCCO/N=C(\c1ccc(C(=O)O)cc1)c1cc2c(cc1C)C(C)(C)CCC2(C)C` is ____.
Reply text: 61
